target: D(2) dopamine receptor (Homo sapiens) (UniProt P14416); experiment: qHTS of D3 Dopamine Receptor Agonist: D2 Dopamine Receptor B-arrestin Agonist Counterscreen; conditions: DiscoveRx PathHunter D2 beta-arrestin, luminescence, 90 min; series mostly up to 76.9 µM; note: nearly all actives have a fitted effect of over 70% in size; for activation: % of control where 0% means no effect
Sequence (P14416 whole entry, looked up): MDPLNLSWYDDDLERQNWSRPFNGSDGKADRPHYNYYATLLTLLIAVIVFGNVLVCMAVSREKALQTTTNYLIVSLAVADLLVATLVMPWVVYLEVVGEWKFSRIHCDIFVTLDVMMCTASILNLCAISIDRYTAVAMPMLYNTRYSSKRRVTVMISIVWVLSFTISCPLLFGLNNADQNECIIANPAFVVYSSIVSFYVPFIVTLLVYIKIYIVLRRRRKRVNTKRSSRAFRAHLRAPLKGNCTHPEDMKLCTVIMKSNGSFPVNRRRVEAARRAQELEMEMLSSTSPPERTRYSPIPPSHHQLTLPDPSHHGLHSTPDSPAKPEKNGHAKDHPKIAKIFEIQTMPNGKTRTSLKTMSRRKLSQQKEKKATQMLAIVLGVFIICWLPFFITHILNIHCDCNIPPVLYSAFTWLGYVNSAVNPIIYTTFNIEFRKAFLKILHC
In all, about 2,300 compounds went through this assay and about 140 (6.1%) were called active. Another 18% or so got no clear call; they are omitted. Calls come from the whole dose curve; as a rule, active = well fitted activation curve with a large enough effect; inconclusive = small, poorly fitted or top-dose-only effect; inactive = flat fitted curve, though single readings scatter. These entries were drawn from the full list.
Allowed answers: yes (1) = active, no (0) = inactive

Check out these entries, answers already filled in.
Task item: Record request — test call for `CCCCC(=O)NNC(=S)NC(=O)C(c1ccccc1)c1ccccc1`
Reply: no (0)

Task item: Returns: the outcome recorded for `Cn1c(=O)c(=O)n(C)c2cc(S(=O)(=O)NCCN3CCN(c4ccccc4F)CC3)ccc21` in this assay.
Reply: no (0)

Task item: # outcome recorded in this test, key = `CC(C)(C)n1ncc2c(=O)n(Cc3c(Cl)cccc3Br)cnc21`
Reply: no (0)

Task item: I'd appreciate the recorded outcome for `O=C1C=C(c2cccc(Br)c2)C[C@@H](c2ccc(F)cc2)C1` from this test.
Reply: no (0)

Task item: Could you kindly confirm the outcome this assay logged for CC(CCc1ccccc1)NCC(O)c1cccc([N+](=O)[O-])c1 (stereo not drawn) ?
Reply: no (0)

Task item: What classification did `O=C(c1ccco1)N1CCN(Cc2cccc(C(F)(F)F)c2)CC1` end up with in this test?
Reply: yes (1)

Task item: GET /call?item= OC(COc1ccc2c(c1)CCC2)CN1CCN(c2cccc(Cl)c2)CC1 (stereo not drawn) returns the recorded outcome of this test.
Reply: no (0)

Task item: Test call, this compound: `CC(=O)C[C@@H](O)CC(=O)[C@H]1OC(=O)CCCCCCc2ccccc21`
Reply: no (0)

Task item: Recorded call for O=C(c1ccccc1)c1ccc(OCC(O)CN2CCCC2)cc1 (stereo not drawn) ?
Reply: no (0)

Task item: For this compound, state the assay outcome: `COc1ccc(NC(C)=O)cc1NC(=O)CN1CCN(c2ccccn2)CC1`
Reply: no (0)

Further cases:
Task item: Hi, sorry to bother you, what did the test record for COc1cccc(NC(=O)C2CCCN(c3ncnc4c3nc3n4CCCCC3)C2)c1 (stereo not drawn) ?
Reply: no (0)

Task item: Record lookup: outcome of this test for `CS/C(=C\C(=O)c1ccco1)Nc1ccccc1Cl` ?
Reply: no (0)

Task item: Write down the call the test reported for this compound. Item: O=C(NC1CCCCC1)c1ccc2c(=O)n(CC3CCCO3)c(=O)[nH]c2c1 (stereo not drawn)
Reply: no (0)

Task item: I would be grateful if you could indicate the recorded call for `Cc1ccc(CN2CCN(c3ncccn3)CC2)c(C)c1` .
Reply: yes (1)

Task item: Look up the recorded call for CC(=O)Nc1ccc(OCC(O)CN2CCN(c3ccccc3Cl)CC2)cc1 (stereo not drawn) in this test.
Reply: no (0)
